# System: SN12C renal
# Protocol summary: NCI-60 one-dose screen, 48 h (100 = growth as untreated, 0 = no growth, -100 = all killed)
# Reported conditions: 10 µM unless noted
Compounds without any hit were thinned out: in the full panel of roughly 83,000, 20% have a hit.
Known growth of a selection of molecules

>  <Structure string>
Fc1ccc(-c2nnc(N3CCOCC3)c3ccccc23)cc1

>  <Unit abbreviation>
%

>  <growth>
95

$$$$
>  <Structure string>
CC(=O)Nc1ccc(Cl)cc1Cl

>  <Unit abbreviation>
%

>  <growth>
101

$$$$
>  <Structure string>
CC(=O)O[C@H]1[C@H](CC#CC#CC[C@@H]2C[C@]3(C)[C@H]4CC=C5[C@H]6[C@@H](C)[C@H](C)CC[C@]6(C(=O)NCCCCCCCCN)CC[C@@]5(C)[C@]4(C)CC[C@H]3C(C)(C)[C@H]2OC(C)=O)C[C@]2(C)[C@H]3CC=C4[C@H]5[C@@H](C)[C@H](C)CC[C@]5(C(=O)NCCCCCCCCN)CC[C@@]4(C)[C@]3(C)CC[C@H]2C1(C)C

>  <Unit abbreviation>
%

>  <growth>
97.8

$$$$

* * *

# Tested on: SR leukemia
# Protocol summary: NCI-60 one-dose screen, 48 h (100 = growth as untreated, 0 = no growth, -100 = all killed)
# Reported conditions: 10 µM unless noted
Compounds without any hit were thinned out: in the full panel of roughly 83,000, 20% have a hit.

>  <Compound>
CN(C)c1ccc(/C=C(\C#N)c2nc3ccccc3n2C)cc1

>  <Unit abbreviation>
%

>  <growth>
29.2

$$$$
>  <Compound>
COc1ccc(C(=O)c2cc(C)c(OC)c(C)c2)cc1OC(=O)CCl

>  <Unit abbreviation>
%

>  <growth>
2.99

$$$$
>  <Compound>
COc1cc(Cn2c(-c3ccccc3)cc3c2-c2oncc2CC3)cc(OC)c1OC

>  <Unit abbreviation>
%

>  <growth>
8.51

$$$$
>  <Compound>
COc1cc(C)c2c(=O)c3c(oc2c1)C(=O)c1c(O)c(OC)cc(O)c1C3=O

>  <Unit abbreviation>
%

>  <growth>
15.7

$$$$
>  <Compound>
Cc1c(-c2ccc(-c3ccccc3F)cc2)nc2ccc(F)cc2c1C(=O)O

>  <Unit abbreviation>
%

>  <growth>
23.4

$$$$
>  <Compound>
COc1ccc(-c2nc(-c3ccccc3OCc3ccccc3OC)nc(C)c2C(C)=O)cc1

>  <Unit abbreviation>
%

>  <growth>
78.8

$$$$
>  <Compound>
O=C(NCC(c1ccsc1)N1CCCCCC1)c1ccc(C(F)(F)F)cc1 (stereo unspecified)

>  <Unit abbreviation>
%

>  <growth>
85.8

$$$$
>  <Compound>
O=C(O)c1ccccc1N=Cc1ccccc1

>  <Unit abbreviation>
%

>  <growth>
95.9

$$$$
>  <Compound>
c1ccc2c(Cc3csc4ccccc34)csc2c1

>  <Unit abbreviation>
%

>  <growth>
50

$$$$
>  <Compound>
COc1cc2cc(C(=O)Nc3ccccc3)c(N)nc2cc1OC

>  <Unit abbreviation>
%

>  <growth>
-35.8

$$$$
>  <Compound>
COc1ccc(NC(=O)/C=C/c2ccc(Cl)c(Cl)c2)cn1

>  <Unit abbreviation>
%

>  <growth>
95.2

$$$$

* * *

# System: MOLT-4 leukemia
# Protocol summary: NCI-60 one-dose screen, 48 h
# Reported conditions: 10 µM unless noted
About 83,000 compounds went through this panel and 20% of them were active in at least one assay; those are over-represented in the sample as a whole. Active and inactive are the calls of the source. The calls were made as follows: active = growth percent below 10; inactive = the rest.
Outcomes: active, inactive

>  <Compound>
O=c1c2sc3ccccc3c2nnn1-c1ccc(F)c(Cl)c1

>  <Label>
inactive

$$$$
>  <Compound>
CC(C)COC(=O)NC(C)(C)C

>  <Label>
inactive

$$$$
>  <Compound>
CCCCOc1ncnc2nc[nH]c12

>  <Label>
inactive

$$$$
>  <Compound>
COC(=O)/C=C/c1cc(OC(C)=O)c2c(c1)[C@@H](C(=O)OC)[C@H](c1ccc(OC(C)=O)c(OC(C)=O)c1)O2

>  <Label>
inactive

$$$$
>  <Compound>
Clc1ccccc1Nc1nnc(-c2ccncc2)s1

>  <Label>
inactive

$$$$
>  <Compound>
NC(N)=N/N=C/c1ccccc1

>  <Label>
inactive

$$$$
>  <Compound>
COc1cc(C2Nc3ccccc3S2)cc(CN2CCOCC2)c1O (configuration not stated)

>  <Label>
inactive

$$$$
>  <Compound>
CCCCc1n(Cc2ccc3ccccc3n2)cc[n+]1Cc1ccc2ccccc2n1

>  <Label>
inactive

$$$$
>  <Compound>
Nc1nc(N)c2c(n1)NC(c1sc(Cl)nc1Cl)CC(c1ccc3c(c1)OCO3)=N2 (configuration not stated)

>  <Label>
inactive

$$$$
>  <Compound>
CCSc1ccc([C@@H]2[C@@H](N)C(=O)N2c2cc(OC)c(OC)c(OC)c2)cc1

>  <Label>
inactive

$$$$
>  <Compound>
Fc1cc(-c2nnc3sc(-c4ccc(Cl)cc4)nn23)c(Cl)cc1Cl

>  <Label>
inactive

$$$$
>  <Compound>
O=C1C=CC(=O)N1c1cccc(N2C(=O)C=CC2=O)c1

>  <Label>
inactive

$$$$
>  <Compound>
CN(C)CCOc1nc2c3ccncc3cc(-c3cccc(Cl)c3)c2c2cnccc12

>  <Label>
active

$$$$
>  <Compound>
COc1cc(NC(C)CCCN)c2ncccc2c1Oc1ccc(Cl)cc1 (configuration not stated)

>  <Label>
inactive

$$$$
>  <Compound>
COc1ccc(/C=c2\c(=O)n(-c3ccccc3)c3nn4c(n23)=NNC42CCCCC2)cc1

>  <Label>
inactive

$$$$
>  <Compound>
CCC(C)C1NC(=O)c2nc(oc2-c2ccccc2)-c2csc(n2)-c2csc(n2)-c2nc(oc2C)-c2coc(n2)CNC(=O)C(C(C)CC)NC1=O (configuration not stated)

>  <Label>
active

$$$$
>  <Compound>
COCCOCCOCc1n(Cc2ccc3ccccc3n2)c2ccccc2[n+]1Cc1ccc2ccccc2c1

>  <Label>
active

$$$$
>  <Compound>
Cc1ccc2oc(=O)cc(-c3nc4ccc([N+](=O)[O-])cc4[nH]3)c2c1

>  <Label>
inactive

$$$$
>  <Compound>
O=C(Nc1cccc(Cl)c1)Nc1cc(C(F)(F)F)ccc1Cl

>  <Label>
inactive

$$$$
>  <Compound>
Oc1ccc(CCCCCCc2ccc(O)cc2)cc1

>  <Label>
inactive

$$$$
>  <Compound>
O=C(O)c1ccccc1N=Cc1ccccc1

>  <Label>
inactive

$$$$
>  <Compound>
CC(C)=CCC[C@H](C)c1ccc(C)c2c1OCN(CCO)C2

>  <Label>
inactive

$$$$

Where do these numbers come from? They come from PubChem BioAssay (NCI).
